Reference for the values: PubChem BioAssay (NCATS)

- test_description: Quantitative High-Throughput drug screen in 47 multiple myeloma cell lines against the NCATS MIPE library collection: KMS26_JCRB cell viability assay (AID 1918975); further: nearly all actives have a fitted effect of over 45% in size; further: potency means the concentration at half of the fitted maximal effect
- measurement_conditions: KMS26 myeloma cells viability, CellTiter-Glo ATP, 48 h; series mostly up to 45.8 µM
Inconclusive results are not listed. The source made the active and inactive calls. The call rests on the fitted dose curve; in most records, active means well fitted cell-killing curve with a large enough effect; inconclusive means small, poorly fitted or top-dose-only effect, or effect the other way; inactive means no such curve, though single readings can be large or run the other way.
measurement_name: Potency

# annotated cases, reported Potency shown
{"molecule": "O=C(O)c1nc(=O)[nH]c(=O)[nH]1", "Potency": "inactive"}
{"molecule": "C=C1c2cccc(O)c2C(O)=C2C(=O)[C@@]3(O)C(O)=C(C(N)=O)C(=O)[C@@H](N(C)C)[C@@H]3[C@@H](O)[C@H]12", "Potency": "4.69 µM (active)"}
{"molecule": "C[C@@H]1O[C@@H](O[C@H]2CC[C@@]3(C)[C@H](CC[C@@H]4[C@H]3C[C@@H](O)[C@]3(C)[C@@H](C5=CC(=O)OC5)CC[C@]43O)C2)C[C@H](O)[C@@H]1O[C@H]1C[C@H](O)[C@H](O[C@H]2C[C@H](O)[C@@H](O)[C@@H](C)O2)[C@H](C)O1 (stereo in doubt)", "Potency": "0.27 µM (active)"}
{"molecule": "O=C(c1ccc(F)c(F)c1Nc1ccc(I)cc1F)N1CC(O)([C@H]2CCCCN2)C1", "Potency": "23.5 µM (active)"}
{"molecule": "O=S(=O)(NCCNCC=Cc1ccc(Br)cc1)c1cccc2cnccc12", "Potency": "13.2 µM (active)"}

Problem: Read the entry CC(NCCc1ccc(O)cc1)C(O)c1ccc(O)cc1 (stereo not drawn) and write its reported Potency.
Solution: inactive

Problem: Indicate the recorded Potency value for this molecule: `CC(=O)Nc1cccc(-n2c(=O)n(C3CC3)c(=O)c3c(Nc4ccc(I)cc4F)n(C)c(=O)c(C)c32)c1`
Solution: inactive

Problem: Identify Potency associated with the molecule `NS(=O)(=O)c1cc(Cl)c(Cl)c(S(N)(=O)=O)c1`
Solution: inactive

Problem: Report Potency for `CN1N=C(N)c2cn([C@@H]3O[C@H](COP(=O)(O)O)[C@@H](O)[C@@H]3O)c3ncnc1c23`
Solution: 0.0132 µM (active)

Problem: Tell me measured Potency for `O=C(Nc1cccc(C(F)(F)F)c1)Nc1cc(S(=O)(=O)NC2CC2)ccc1-c1ccsc1` please.
Solution: 16.6 µM (active)

Problem: Indicate its recorded Potency; the molecule in question is `C[C@@H](O[C@H]1OCCN(Cc2n[nH]c(=O)[nH]2)[C@@H]1c1ccc(F)cc1)c1cc(C(F)(F)F)cc(C(F)(F)F)c1`
Solution: 18.7 µM (active)

Problem: Output Potency of `COc1ccc2cc1Oc1ccc(cc1)C[C@H]1c3cc(c(OC)cc3CCN1C)Oc1c(OC)c(OC)cc3c1[C@H](C2)N(C)CC3`
Solution: 14.8 µM (active)

Problem: Specify Potency for CC1(C)CC(=O)c2c(C(F)(F)F)nn(-c3ccc(C(N)=O)c(NC4CCC(O)CC4)c3)c2C1 (stereo not drawn) and stop.
Solution: 0.0469 µM (active)

Problem: Give Potency for `CCC(=C(c1ccc(O)cc1)c1ccc(OCCNC)cc1)c1ccccc1`
Solution: 26.4 µM (active)

Problem: Specify Potency for `COc1cc2ncn(-c3cc(OCc4ccccc4S(C)(=O)=O)c(C#N)s3)c2cc1OC` and stop.
Solution: inactive

Problem: Tell us which Potency value is on record for `Fc1ccc(CNc2ncnc3ccc(F)cc23)cc1`
Solution: inactive

Problem: Look up and state reported Potency for `CN(C)c1ccc(-c2nc3ncc(Cl)c(N4CCN(CC(=O)Nc5nccs5)CC4)c3[nH]2)cc1`
Solution: 5.9 µM (active)

Problem: Let me know recorded Potency for `Cc1cnc(Nc2cccc(CN3CCOCC3)c2)nc1Nc1cccc(S(=O)(=O)NC(C)(C)C)c1` , thanks.
Solution: 18.7 µM (active)
